Would you mind telling me the reported GI50 of each entry?
tested on: SK-OV-3; assay: NCI tumour cell line growth inhibition, 48 h
The source made the active and inactive calls. Rule as the data show it: active = GI50 up to about 1.1 µM and inactive = higher. Square brackets hold non-standard residues; d marks the D form. Peptide text beside a SMILES is read from it. * marks the point of attachment. X26 = COC1=CC(=O)N(C(=O)[C@@H](O*)C(C)C)[C@H]1Cc1ccccc1; NMeL = CN[C@@H](CC(C)C)C(=O)O; Hexanoyl = CCCCCC(=O)*

Lab note: need GI50 with SK-OV-3 for entry COc1ccc(-c2cc(-c3ccccc3)n(C3OCC(OC(C)=O)C(OC(C)=O)C3OC(C)=O)c(=S)c2C#N)cc1 (centres undefined) , please look it up.
66.1 µM (inactive)

What value of GI50 on SK-OV-3 does COC(=O)C(C)(/N=C/c1ccccc1)c1ccccc1 (centres undefined) have?
> 100 µM (inactive)

Could you tell me GI50 for each of these molecules? They are listed below.
1. CCCCCC(=O)N[C@H](C(=O)N[C@H](C(=O)N(C)[C@@H](CC(C)C)C(=O)N1CCC[C@H]1C(=O)N1CCC[C@H]1C(=O)O[C@H](C(=O)N1C(=O)C=C(OC)[C@@H]1Cc1ccccc1)C(C)C)C(C)C)C(C)C (Hexanoyl-VV[NMeL]PP-X26)
2. CSc1ccc2c(cc1=O)[C@@H](NC(=O)c1ccc([N+](=O)[O-])cc1)CCc1cc(O)c(O)c(O)c1-2

1: > 100 µM (inactive); 2: > 100 µM (inactive)

Recorded values, source ChEMBL document CHEMBL1201862.
